details: 298.15 K; Liquid; Gas chromatography
Flag rule - vapor or sublimation pressure less than 0.0001 kPa flags T; the remaining entries get F.

Query string: For CCCCCCCC1CCC(=O)O1 (stereo unspecified) , is the recorded vapor or sublimation pressure below the cut-off of 0.0001 kPa?
Result string: F

Query string: For CCCCCCC1CCCC(=O)O1 (stereo unspecified) , is the recorded vapor or sublimation pressure below the cut-off of 0.0001 kPa?
Result string: T

Query string: For CCCCC1CCCC(=O)O1 (stereo unspecified) , is the recorded vapor or sublimation pressure below the cut-off of 0.0001 kPa?
Result string: F

Query string: For CCCCCC1CCC(=O)O1 (stereo unspecified) [2(3H)-furanone, dihydro-5-pentyl-] , is the recorded vapor or sublimation pressure below the cut-off of 0.0001 kPa?
Result string: F

Query string: For CCCCCC1CCCC(=O)O1 (stereo unspecified) [2H-pyran-2-one, tetrahydro-6-pentyl-] , is the recorded vapor or sublimation pressure below the cut-off of 0.0001 kPa?
Result string: F

Query string: For CCCCC1CCC(=O)O1 (stereo unspecified) , is the recorded vapor or sublimation pressure below the cut-off of 0.0001 kPa?
Result string: F

Query string: For CCCCCCCCC1CCC(=O)O1 (stereo unspecified) , is the recorded vapor or sublimation pressure below the cut-off of 0.0001 kPa?
Result string: T

Query string: For CCC1CCC(=O)O1 (stereo unspecified) [2(3H)-furanone, 5-ethyldihydro-] , is the recorded vapor or sublimation pressure below the cut-off of 0.0001 kPa?
Result string: F

Query string: For CCCCCCCC1CCCC(=O)O1 (stereo unspecified) , is the recorded vapor or sublimation pressure below the cut-off of 0.0001 kPa?
Result string: T

Query string: For CCCCCCC1CCC(=O)O1 (stereo unspecified) , is the recorded vapor or sublimation pressure below the cut-off of 0.0001 kPa?
Result string: F

Query string: For CCCC1CCCC(=O)O1 (stereo unspecified) [2H-pyran-2-one, tetrahydro-6-propyl-] , is the recorded vapor or sublimation pressure below the cut-off of 0.0001 kPa?
Result string: F
